Origin of the recorded values: ChEMBL document CHEMBL3862037

- ASSAY_INFO: Displacement of [3H]nisoxetine from NET in Sprague-Dawley rat frontal cortex membranes incubated for 180 mins by radioligand binding assay
- Design: species or system Membrane
MEASUREMENT_KIND: Ki

1. [O-][S+](CCN1CCN(Cc2ccc(F)cc2)CC1)C(c1ccc(F)cc1)c1ccc(F)cc1 (stereo not drawn)	> 50 µM
2. CC(O)CN1CCN(C(=O)CSC(c2cccc(Cl)c2)c2cccc(Cl)c2)CC1 (stereo not drawn)	> 50 µM
3. CC(O)CN1CCN(C(=O)C[S+]([O-])C(c2cccc(Cl)c2)c2cccc(Cl)c2)CC1 (stereo not drawn)	> 50 µM
